test: Plasma pharmacokinetics in vivo; settings: SD, rat, plasma, oral, 22 mg/kg; after i.g. Cbz-dFdC, rats, 24 h
recorded-endpoint: concentration at 24 h

Given the compound Nc1ccn([C@@H]2O[C@H](CO)[C@@H](O)C2(F)F)c(=O)n1 , what is its reported concentration at 24 h?
~300 ng/mL

----------
assay: Enzymatic kinetics in vitro, human liver S9; format: in vitro ADME; conditions: Human Liver S9; 37 °C, 30 min, 5–200 μM Cbz-dFdC; read-out: Clint, disappearance of Cbz-dFdC
recorded-endpoint: microsomal CLint (µL/min/mg)
Give the number; µL/min/mg is assumed, so skip it.

Given the compound O=C(Nc1ccn([C@@H]2O[C@H](CO)[C@@H](O)C2(F)F)c(=O)n1)OCc1ccccc1 , what is its reported microsomal CLint?
13800
